Target: T1, human Complement Factor D (CFD), purified from human serum (human, UniProt P00746 26-253)
T1 construct: serum purified (CompTech A136); also called serum purified CFD; hCFD-Comptech
T1 sequence (P00746 26-253): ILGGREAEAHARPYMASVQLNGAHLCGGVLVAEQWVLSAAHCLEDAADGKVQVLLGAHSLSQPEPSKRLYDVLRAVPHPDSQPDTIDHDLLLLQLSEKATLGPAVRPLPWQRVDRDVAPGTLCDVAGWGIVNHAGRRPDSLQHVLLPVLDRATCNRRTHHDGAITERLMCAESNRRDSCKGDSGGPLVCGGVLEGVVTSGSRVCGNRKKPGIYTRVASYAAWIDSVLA
Assay: SPR MX96, mAbs amine-coupled, CFD injected
measured_attribute: Kd (nM)
Give just the numeric value; nM need not be written.

- KCD008 (antibody, V domains shown) VH: EVQLQQSGPELVKAGASVKMSCTASGFNIKDTYMHWVKQRPEQGLAWIGRIDPANGNIKYDPKFQGKATITADTSSNTAYLQLSSLTSDDTAVYYCTSAMDYWGQGTSVTVSS VL: QIVLTQSPEIMSASPGEKVTMTCSARSSVSYMYWYQQKPGSSPRLLIYDTSNLASGVPVRFSGSGSGTSYSLTISRMETEDAATYYCQQWSTYPFTFGSGTKLEIK: 4.38
- KCD208 (antibody, V domains shown) VH: EVQLQQSVAELVRPGASVKLSCTVSGFNIKNTYMHWVKQRPEQGLEWIGRIDPANGDTTYAPKFQGKATITADTSSNSAYLHLSRLTSEDTAIYYCSLYDYDGYWGQGTTLTVSS VL: EIVLTQSPALMAASPGEKVTITCSVSSSISSSSLHWYRQKSGTSPKPWIYGTSHLASGVPVRFSGSGSGTSYSLTISSMEAEDAATYYCQQWDTYPWTFGGGTKLEIK: 2.55

Now look at this one.
Field Kd (entry KCD101 (antibody, V domains shown) VH: QVQLQQPGAELVRPGTSVKLSCKASGYTFTSYWMHWVKQRPGQGLEWIGVIDPSDSYTNYNQKFKGKATLTVDTSSSTAYMQLSSLTSEDSAVYYCGRNGYDGSMDYWGQGTSVTVSS VL: DIQMTQTTSSLSASLGDRVTISCRASQDISNYLNWYQQKPDGTVKLLIYYPSRLHSGVPSRFSGSGSGTDYSLTISNLEQEDFATYFCQQGNTLPYTFGGGTKLEIK ) reads 3.78
